Each recorded value in this set is attributed to PubChem BioAssay (NCI).

Tested on: ACHN renal
method-summary: NCI tumour cell line growth inhibition, 48 h
readout: GI50

Please state GI50 for every compound in the list that follows.
1. O=C(/C=C(\[O-])c1ccccc1)CCCCCCC(=O)/C=C(\[O-])c1ccccc1.O=C(/C=C(\[O-])c1ccccc1)CCCCCCC(=O)/C=C(\[O-])c1ccccc1.O=C(/C=C(\[O-])c1ccccc1)CCCCCCC(=O)/C=C(\[O-])c1ccccc1.[Nd+3].[Nd+3]
2. O=C(N/N=C/c1ccc(F)cc1)c1ccc(C(F)(F)F)nc1Nc1cccc(C(F)(F)F)c1
3. COc1cc(OC)cc(-c2ccc(-c3ccc(C(=N)N)cn3)s2)c1
4. Cc1cc(Nc2ccc(Cl)cc2)nc(NCCCNc2ccnc3cc(Cl)ccc23)n1
5. CC1=C(CNO)C2=C(C)C3(CC3)[C@@](C)(O)C(=O)C2=C1

1: > 50000 nM; 2: 1660 nM; 3: 1810 nM; 4: 1630 nM; 5: 2250 nM

Provide GI50 for all items below, preserving their order.
1. Nc1ncc(C2[C@H](CNC(=O)c3cc(Br)c[nH]3)C(CNC(=O)c3cc(Br)c[nH]3)[C@@H]2c2cnc(N)[nH]2)[nH]1 (some centres not stated)
2. O=C1CCS/C(=N/S(=O)(=O)c2ccc(N3N=C4c5ccccc5CC4C3c3cccs3)cc2)N1Cc1ccccc1 (configuration not stated)

> 50000 nM
14900 nM
